# Experimental protocol: Binding affinity was determined towards Opioid receptor delta 1 using [3H]naltrindole as radioligand
Each entry below lists one item and its recorded Ki value.
Report as a plain number; the unit nM is understood.

[
  {
    "Compound": "O=CNc1ccc2c3c1O[C@H]1C(=O)CC[C@@]4(O)[C@@H](C2)N(CC2CC2)CC[C@]314",
    "Ki (nM)": 420
  }
]

C[C@H]1C2Cc3ccc(N(C)C=O)cc3[C@@]1(C)CCN2CC1CC1 has a reported Ki of 6200

CC1[C@H]2Cc3ccc(NC=O)cc3[C@]1(C)CCN2CC1CC1 (some centres undefined) has a reported Ki of 9.8

C[C@H]1C2Cc3ccc(NC(=O)c4ccccc4)cc3[C@@]1(C)CCN2CC1CC1 has a reported Ki of 2400

Nc1ccc2c3c1O[C@H]1C(=O)CC[C@@]4(O)[C@@H](C2)N(CC2CC2)CC[C@]314 has a reported Ki of 880

CC(=O)Nc1ccc2c(c1)[C@@]1(C)CCN(CC3CC3)C(C2)[C@@H]1C has a reported Ki of 1700

C[C@H]1C2Cc3ccc(NC=O)cc3[C@@]1(C)CCN2CC1CC1 has a reported Ki of 37

CC[C@@]12CCN(CC3CC3)C(C(=O)c3ccc(NC=O)cc31)[C@@H]2C has a reported Ki of 52
